B1: HHH_rd2_0155 (parent)
chain: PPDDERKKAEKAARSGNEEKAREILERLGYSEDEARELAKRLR

Variants of: B1
ASSAY REMARKS: folding stability dG (cDNA display proteolysis); higher = more stable
MEASUREMENT CONDITIONS: PBS, room temperature
folding stability dG values, listed per item
PROPERTY: folding stability dG

> print(dat)
   mutation.list              property  reported.measurement
1           E37S  folding stability dG         2.05 kcal/mol
2            P2S  folding stability dG         1.97 kcal/mol
3            D4M  folding stability dG         1.97 kcal/mol
4           E19D  folding stability dG         2.03 kcal/mol
